# credit: patent US9340555B2

- target_entity: VEGFR1 (Homo sapiens (Human))
- Sequence (P17948 27-1338, species assumed): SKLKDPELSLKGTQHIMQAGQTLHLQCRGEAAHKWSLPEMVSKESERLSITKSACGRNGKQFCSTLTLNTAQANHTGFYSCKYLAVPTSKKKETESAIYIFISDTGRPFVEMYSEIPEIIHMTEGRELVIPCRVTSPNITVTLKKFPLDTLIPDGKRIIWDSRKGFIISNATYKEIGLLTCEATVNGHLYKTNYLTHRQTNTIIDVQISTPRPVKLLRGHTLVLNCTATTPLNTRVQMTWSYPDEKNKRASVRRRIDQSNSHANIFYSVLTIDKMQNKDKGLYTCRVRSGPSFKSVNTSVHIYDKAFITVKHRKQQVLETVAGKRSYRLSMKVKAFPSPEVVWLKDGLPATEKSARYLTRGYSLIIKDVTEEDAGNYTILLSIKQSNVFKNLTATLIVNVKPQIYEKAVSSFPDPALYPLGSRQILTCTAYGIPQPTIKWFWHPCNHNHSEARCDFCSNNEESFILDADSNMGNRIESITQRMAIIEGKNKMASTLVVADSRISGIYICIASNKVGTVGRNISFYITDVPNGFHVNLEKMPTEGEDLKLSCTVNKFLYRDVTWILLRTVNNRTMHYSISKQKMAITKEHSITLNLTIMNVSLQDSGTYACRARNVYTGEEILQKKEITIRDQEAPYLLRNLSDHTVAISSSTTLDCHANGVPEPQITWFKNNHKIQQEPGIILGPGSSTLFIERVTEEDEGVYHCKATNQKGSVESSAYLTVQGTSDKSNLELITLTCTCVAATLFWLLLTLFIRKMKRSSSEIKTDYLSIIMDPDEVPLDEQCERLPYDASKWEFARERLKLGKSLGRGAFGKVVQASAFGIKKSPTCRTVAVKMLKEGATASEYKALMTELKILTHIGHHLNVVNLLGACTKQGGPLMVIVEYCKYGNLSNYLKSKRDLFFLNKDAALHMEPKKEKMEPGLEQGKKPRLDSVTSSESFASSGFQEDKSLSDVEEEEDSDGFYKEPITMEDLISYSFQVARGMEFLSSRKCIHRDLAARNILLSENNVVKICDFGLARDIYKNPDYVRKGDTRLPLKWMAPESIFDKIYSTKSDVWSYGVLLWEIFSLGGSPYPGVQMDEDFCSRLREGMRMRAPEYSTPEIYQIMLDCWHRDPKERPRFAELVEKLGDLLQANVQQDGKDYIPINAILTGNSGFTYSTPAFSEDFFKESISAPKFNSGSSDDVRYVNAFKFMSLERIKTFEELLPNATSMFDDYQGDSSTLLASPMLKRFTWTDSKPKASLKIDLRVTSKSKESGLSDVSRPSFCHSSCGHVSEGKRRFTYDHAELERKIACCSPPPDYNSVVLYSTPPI
Documented IC50 across a set of compounds
readout_type: IC50 (nM)

{"compound": "Cc1ccc(F)c(NC(=O)Nc2ccc(Oc3ccnc4cc(C(=O)NCCCN5CCOCC5)sc34)cc2F)c1 [Example 55]", "target_entity": "VEGFR1 (Homo sapiens (Human))", "measured_result": 7}
{"compound": "Cc1ccc(F)c(NC(=O)Nc2ccc(Oc3ccnc4cc(C(=O)NCCCN5CCCC(CO)C5)sc34)cc2F)c1 (stereo not shown) [Example 36]", "target_entity": "VEGFR1 (Homo sapiens (Human))", "measured_result": 8}
{"compound": "Cc1ccc(F)c(NC(=O)Nc2ccc(Oc3ccnc4cc(C(=O)NCCCN5CCN(C)CC5)sc34)cc2F)c1 [Example 34]", "target_entity": "VEGFR1 (Homo sapiens (Human))", "measured_result": 6}
{"compound": "COC(=O)CN(CCCNC(=O)c1cc2nccc(Oc3ccc(NC(=O)Nc4cc(C)ccc4F)cc3)c2s1)CC(=O)OC [Example 19]", "target_entity": "VEGFR1 (Homo sapiens (Human))", "measured_result": 9}
{"compound": "COC(=O)CNCCCNC(=O)c1cc2nccc(Oc3ccc(NC(=O)Nc4cc(C)ccc4F)c(F)c3)c2s1 [Example 25]", "target_entity": "VEGFR1 (Homo sapiens (Human))", "measured_result": 8}
{"compound": "COC(=O)CNCCCNC(=O)c1cc2nccc(Oc3ccc(NC(=O)Nc4cc(C)ccc4F)cc3)c2s1 [Example 18]", "target_entity": "VEGFR1 (Homo sapiens (Human))", "measured_result": 6}
{"compound": "COC(=O)[C@@H]1C[C@@H](O)CN1CCCNC(=O)c1cc2nccc(Oc3ccc(NC(=O)Nc4cc(C)ccc4F)c(F)c3)c2s1 [Example 39]", "target_entity": "VEGFR1 (Homo sapiens (Human))", "measured_result": 8}
